Biological target: Sphingosine 1-phosphate receptor 1 (Homo sapiens)
Test: human S1P1 agonists, dose response, counter-screen for S1PR3 antagonist project, cell-based, fluorescence, late-stage (AID 743426)
Details: S1P1-expressing cells, agonist counterscreen
Calls of active or inactive are those of the source. How the calls were made is not given here.
observable: EC50

INSERT INTO assay_data (compound, measured_value) VALUES
  ('O=C(NC(c1ccccc1)c1nc(-c2ccccc2)no1)c1cccc(Cl)n1 (stereo not given)', 'inactive'),
  ('N#Cc1ccc(C(=O)NC(c2ccc(Cl)c(Cl)c2)c2nc(-c3ccccc3)no2)cc1 (stereo not given)', '> 50 µM (inactive)'),
  ('O=C(NC(c1ccc(Cl)c(Cl)c1)c1nc(-c2ccccc2)no1)c1ccccc1 (stereo not given)', '> 50 µM (inactive)'),
  ('O=C(NC(c1ccc(Cl)c(Cl)c1)c1nc(-c2ccccc2)no1)c1cccc(Cl)c1 (stereo not given)', '> 50 µM (inactive)'),
  ('O=C(NC(c1ccc(Cl)c(Cl)c1)c1nc(-c2ccccc2)no1)c1ccc(Cl)cc1 (stereo not given)', '> 50 µM (inactive)'),
  ('O=C(NC(c1cccc(Cl)c1)c1nc(-c2ccccc2)no1)c1cccc(Cl)c1 (stereo not given)', '> 50 µM (inactive)'),
  ('O=C(NC(c1nc(-c2ccccc2)no1)C1CCCCC1)c1ccc(Cl)c(Cl)c1 (stereo not given)', '> 50 µM (inactive)'),
  ('O=C(NC(c1ccccc1)c1nc(-c2ccccc2)no1)c1cccc(Br)c1 (stereo not given)', 'inactive'),
  ('O=C(NC(c1cccc(Cl)c1)c1nc(-c2ccccc2)no1)c1cc(Cl)cc(Cl)c1 (stereo not given)', '> 50 µM (inactive)'),
  ('CCc1ccc(C(NC(=O)c2cccc(Cl)c2)c2nc(-c3ccccc3)no2)cc1 (stereo not given)', '> 50 µM (inactive)'),
  ('Cc1ccc(C(=O)NC(c2ccccc2)c2nc(-c3ccccc3)no2)cc1 (stereo not given)', '> 50 µM (inactive)'),
  ('O=C(NC(c1ccc(Cl)c(Cl)c1)c1nc(-c2ccccc2)no1)c1ccc(Cl)c(Cl)c1 (stereo not given)', '> 50 µM (inactive)'),
  ('Cc1ccc(C(NC(=O)c2cccc(Cl)c2)c2nc(-c3ccccc3)no2)cc1 (stereo not given)', '> 50 µM (inactive)'),
  ('O=C(NC(c1ccc(Cl)cc1)c1nc(-c2ccccn2)no1)c1cccc(Cl)c1 (stereo not given)', '> 50 µM (inactive)'),
  ('O=C(NC(c1ccccc1)c1nc(-c2ccccc2)no1)c1cccc(Cl)c1 (stereo not given)', '> 50 µM (inactive)'),
  ('O=C(NC(c1ccc(Cl)cc1)c1nc(-c2ccccc2)no1)c1cccc(Br)c1 (stereo not given)', '> 50 µM (inactive)'),
  ('O=C(NC(c1nc(-c2ccccc2)no1)C1CCOCC1)c1ccc(Cl)c(Cl)c1 (stereo not given)', '> 50 µM (inactive)'),
  ('O=C(NC(c1ccc(Cl)cc1)c1nc(-c2ccccc2)no1)c1ccc(Cl)c(Br)c1 (stereo not given)', '> 50 µM (inactive)'),
  ('O=C(NC(c1ccc(Cl)cc1)c1nc(-c2ccccc2)no1)c1cccc(Cl)c1 (stereo not given)', '> 50 µM (inactive)'),
  ('O=C(c1cccc(Cl)c1)N(CCO)C(c1ccc(Cl)c(Cl)c1)c1nc(-c2ccccc2)no1 (stereo not given)', 'inactive');
